Where do these numbers come from? They come from patent US20240000957A1.

Target: T1, Human EphA2 (Ecto), C-terminal polyHis (Human, UniProt P29317 24-537)
T1 construct: extracellular domain; R&D systems 3035-A2 or in-house
T1 sequence (P29317 24-537): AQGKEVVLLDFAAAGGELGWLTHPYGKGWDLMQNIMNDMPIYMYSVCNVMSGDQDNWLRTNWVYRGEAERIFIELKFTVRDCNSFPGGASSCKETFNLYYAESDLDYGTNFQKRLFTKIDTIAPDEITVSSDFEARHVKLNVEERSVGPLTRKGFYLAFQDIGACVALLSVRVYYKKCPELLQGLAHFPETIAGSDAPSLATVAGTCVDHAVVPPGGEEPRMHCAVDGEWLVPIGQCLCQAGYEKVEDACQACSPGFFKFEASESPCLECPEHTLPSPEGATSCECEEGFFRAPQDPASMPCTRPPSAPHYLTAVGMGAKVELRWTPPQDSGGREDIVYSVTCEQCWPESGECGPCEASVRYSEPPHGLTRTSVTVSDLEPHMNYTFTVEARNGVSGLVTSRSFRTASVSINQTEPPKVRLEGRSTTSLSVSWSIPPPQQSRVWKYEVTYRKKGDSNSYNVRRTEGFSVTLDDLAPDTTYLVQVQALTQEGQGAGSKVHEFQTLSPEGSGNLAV
Experimental details: FP competition vs Reference Compound C
*1 amine or outer side, *2 acyl side, *3 side chain or, on linkers, in order; H or OH if unused. Bridges are numbered along the chain shown (N, C = ends). Where no end group is shown, it is not given here. TATA = O=C(CC[*:1])N1CN(C(=O)CC[*:2])CN(C(=O)CC[*:3])C1
Result type: Ki
Please report the result as a number followed by the unit.

Guide cases for Ki, answers given:
Binder: ACPLVNPLCLYGSWKCA (linker 2-9-16 via TATA; not fully specified (C-terminus)) [Compound 63]
Measured value: 59 nM
//
Binder: ACMNDWWCAMGWKCA (linker 2-8-14 via TATA) [Compound 15]
Measured value: 278 nM

Shifting focus to the binder that follows.
query: What does the record list as Ki for RPPCPLVNPLCLHPGWTCA (linker 4-11-18 via TATA; not fully specified (C-terminus)) [Compound 71] ?
result: 11.1 nM
